- protocol_notes: Fraction unbound in human serum at 100 mg, po
- Format: ADME, organism-based
test_readout: fraction unbound

Asked: Can you look up the measured fraction unbound of C[C@H]1COc2c(N3CCN(C)CC3)c(F)cc3c(=O)c(C(=O)O)cn1c23.C[C@H]1COc2c(N3CCN(C)CC3)c(F)cc3c(=O)c(C(=O)O)cn1c23.O [LEVOFLOXACIN] for me?
Given back: 0.31

====

- protocol_notes: Cmax in human at 80 mg, po administered once a day
- Assay type: ADME, organism-based
- Design: dose 80 mg, route oral
- condition_notes: in vivo
test_readout: Cmax (ng/mL)
The answer is to be given in ng/mL; state only the numeric part.

Asked: Can you look up the measured Cmax of COc1c(N2C[C@@H]3CCCN[C@@H]3C2)c(F)cc2c(=O)c(C(=O)O)cn(C3CC3)c12 [MOXIFLOXACIN] for me?
Given back: 330

====

- protocol_notes: AUC (0 to 24 hrs) in human at 400 mg, po administered once a day
- Format: ADME, organism-based
- Parameters: dose 400 mg, time < 24 hr, route oral
- condition_notes: plasma
test_readout: AUC at 24 h (µg·h/mL)
The answer is to be given in µg·h/mL; state only the numeric part.

Asked: Can you look up the measured AUC at 24 h of COc1c(N2C[C@@H]3CCCN[C@@H]3C2)c(F)cc2c(=O)c(C(=O)O)cn(C3CC3)c12 for me?
Given back: 19.8

====

- protocol_notes: Cmax in human at 200 mg, po administered twice a day
- Format: ADME, organism-based
- Set-up: dose 200 mg, route oral
- condition_notes: in vivo
test_readout: Cmax (ng/mL)
The answer is to be given in ng/mL; state only the numeric part.

Asked: Can you look up the measured Cmax of COc1c(N2C[C@@H]3CCCN[C@@H]3C2)c(F)cc2c(=O)c(C(=O)O)cn(C3CC3)c12 for me?
Given back: 2400
